# ASSAYED TARGET: P. falciparum apicoplast DNA polymerase (Pf-apPOL) (Plasmodium falciparum)
# PROTOCOL TEXT: Fluorescence-based high-throughput DNA polymerase assay (molecular beacon), primary screen and dose-response
# Type: biochemical
# CONDITION: DRC-2; 5'; concentration 5
In this section, each of the compounds is paired with its reported % inhibition Apo pol 5'.
Answer in %, number only, no unit symbol.

Completed entries (count: 4):
INSERT INTO measurements (smiles_record, assayed_target, attribute_measured, value_observed) VALUES
  ('O=C1CCCC2=C1C(c1ccccn1)C1=C(CCCC1=O)O2', 'P. falciparum apicoplast DNA polymerase (Pf-apPOL) (Plasmodium falciparum)', '% inhibition Apo pol 5''', 4),
  ('COc1cc(NC(=O)c2ccccc2)c(OC)cc1NC(=O)Cc1cccs1', 'P. falciparum apicoplast DNA polymerase (Pf-apPOL) (Plasmodium falciparum)', '% inhibition Apo pol 5''', 21),
  ('O=C(O)c1ccc(-c2nc3cc(-c4ccc5nc(-c6ccc(C(=O)O)cc6)[nH]c5c4)ccc3[nH]2)cc1', 'P. falciparum apicoplast DNA polymerase (Pf-apPOL) (Plasmodium falciparum)', '% inhibition Apo pol 5''', 7),
  ('O=[N+]([O-])/C=C/c1ccc(-c2ccc(Br)cc2)o1', 'P. falciparum apicoplast DNA polymerase (Pf-apPOL) (Plasmodium falciparum)', '% inhibition Apo pol 5''', 21);

Please find the next compound below.
Q: Hello, please tell me recorded % inhibition Apo pol 5' for this one: `COc1ccc(-c2cc(=O)c3cc(O)ccc3o2)cc1OC`
A: 0.718

---

# ASSAYED TARGET: P. falciparum apicoplast DNA polymerase (Pf-apPOL) (Plasmodium falciparum, UniProt Q8ILY1)
# Sequence (Q8ILY1 entry or part of it): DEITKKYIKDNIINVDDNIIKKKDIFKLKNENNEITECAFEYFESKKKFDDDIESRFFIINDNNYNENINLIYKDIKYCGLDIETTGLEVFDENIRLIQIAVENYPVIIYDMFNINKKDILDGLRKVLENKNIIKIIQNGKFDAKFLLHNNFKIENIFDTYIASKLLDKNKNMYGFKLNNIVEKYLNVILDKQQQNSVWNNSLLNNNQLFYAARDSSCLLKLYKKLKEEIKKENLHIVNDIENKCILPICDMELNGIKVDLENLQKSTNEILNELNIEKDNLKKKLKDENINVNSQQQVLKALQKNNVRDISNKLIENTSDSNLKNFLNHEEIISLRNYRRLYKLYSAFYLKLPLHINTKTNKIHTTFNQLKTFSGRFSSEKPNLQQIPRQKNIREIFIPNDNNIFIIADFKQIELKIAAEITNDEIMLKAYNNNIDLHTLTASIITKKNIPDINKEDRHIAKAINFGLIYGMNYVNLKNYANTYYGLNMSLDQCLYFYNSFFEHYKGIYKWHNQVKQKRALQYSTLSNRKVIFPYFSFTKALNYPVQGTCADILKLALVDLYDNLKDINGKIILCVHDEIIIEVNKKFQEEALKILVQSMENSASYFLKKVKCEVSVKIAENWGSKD
# PROTOCOL TEXT: Fluorescence-based high-throughput DNA polymerase assay (molecular beacon), primary screen and dose-response;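 as to % inhibition apPOL 180': test concentration in µM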
# Format: biochemical
# CONDITION: DRC-1; 180'; concentration 20
Outcome label depends on % inhibition apPOL 180' relative to 20%: at/above gives met, below gives not met.

INSERT INTO results (molecule, class_label) VALUES
  ('CCCCCCCCCCCCCCCCCC(=O)CCN(C)C', 'met');

Q: Given `COc1ccc(CNC(=O)Cn2nc3c(c2NC(=O)Cc2cccs2)CSC3)cc1` , state whether its % inhibition apPOL 180' is at least 20%.
A: not met

Q: Hi, just wondering whether `COCC(=O)Nc1c(-c2cccc(F)c2)nc2cc(C)ccn12` shows % inhibition apPOL 180' of 20% or higher.
A: met

Q: Decide: is the reported value of % inhibition apPOL 180' for COc1ccc(C)cc1NC(=O)Cn1ccc2c(=O)[nH]ccc21 [Molecule 15, COc1ccc(cc1NC(=O)Cn1ccc2c1cc[nH]c2=O)C] equal to or greater than 20%?
A: met

Q: Reported % inhibition apPOL 180' at or above 20%? `Nc1c(S(=O)(=O)O)cc(Nc2ccccc2)c2c1C(=O)c1ccccc1C2=O`
A: met

---

# ASSAYED TARGET: P. falciparum apicoplast DNA polymerase (Pf-apPOL) (Plasmodium falciparum, UniProt Q8ILY1)
# PROTOCOL TEXT: Fluorescence-based high-throughput DNA polymerase assay (molecular beacon), primary screen and dose-response;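 as to % inhibition ApPOL 90': test concentration in µM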
# Format: biochemical
# CONDITION: DRC-2; 90'; concentration 10
ATTRIBUTE MEASURED: % inhibition ApPOL 90' (%)
Give just the number in %; leave the unit off.

Q: Look up and state reported % inhibition ApPOL 90' for `O=C(Nc1c2c(nn1-c1ccccc1)CSC2)c1ccco1`
A: 37
